I'd appreciate it if you could supply AC50 values for the items below.
molecular target: 5-hydroxytryptamine receptor 2B (Homo sapiens); format: functional, cell-based; note: assay procedure not described here
Sequence (P41595 whole entry): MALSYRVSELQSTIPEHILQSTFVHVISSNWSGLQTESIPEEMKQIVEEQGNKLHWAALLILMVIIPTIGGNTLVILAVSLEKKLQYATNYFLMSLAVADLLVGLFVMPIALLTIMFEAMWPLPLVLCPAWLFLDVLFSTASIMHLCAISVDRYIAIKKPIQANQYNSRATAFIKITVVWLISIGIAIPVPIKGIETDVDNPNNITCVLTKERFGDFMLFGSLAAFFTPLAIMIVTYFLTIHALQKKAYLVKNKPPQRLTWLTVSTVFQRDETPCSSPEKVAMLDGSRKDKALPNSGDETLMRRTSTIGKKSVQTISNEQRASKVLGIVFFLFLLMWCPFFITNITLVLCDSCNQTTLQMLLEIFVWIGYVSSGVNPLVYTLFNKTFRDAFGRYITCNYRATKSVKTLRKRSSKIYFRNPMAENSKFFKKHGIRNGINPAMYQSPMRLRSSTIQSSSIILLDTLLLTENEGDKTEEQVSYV

{"columns": ["molecule", "AC50"],
 "data": [
  ["COc1cc(C)c(/C=C/C(C)=C/C=C/C(C)=C/C(=O)O)c(C)c1C", "> 10 µM"],
  ["CCc1nc(N)nc(N)c1-c1ccc(Cl)cc1", "11.3 µM"],
  ["Cn1c(=O)c2c(ncn2CCOC(=O)C(C)(C)Oc2ccc(Cl)cc2)n(C)c1=O [THEOFIBRATE]", "> 30 µM"],
  ["CC(=O)[C@H]1CC[C@H]2[C@@H]3C[C@H](C)C4=CC(=O)CC[C@]4(C)[C@H]3[C@@H](O)C[C@]12C", "> 10 µM"],
  ["CO[C@H]1C[C@H](O[C@H]2CC[C@@]3(C)[C@H](CC[C@@H]4[C@@H]3CC[C@]3(C)[C@@H](C5=CC(=O)OC5)[C@@H](OC(C)=O)C[C@]43O)C2)O[C@@H](C)[C@@H]1O", "> 30 µM"],
  ["CC=CC1=C(C(=O)O)N2C(=O)[C@@H](NC(=O)[C@H](N)c3ccc(O)cc3)[C@H]2SC1", "> 30 µM"],
  ["CC(=O)Nc1ccc(CC(=O)O)cc1", "> 30 µM"]
]}

Proceed to the following item.
Q) Give the value of AC50 reported for the following: CC(C)NC(=N)NC(=N)Nc1ccc(Cl)c(Cl)c1
A) 12.2 µM

---

biological target: 5-hydroxytryptamine receptor 1A (Homo sapiens, UniProt P08908); note: assay procedure not described here
Sequence (P08908 whole entry): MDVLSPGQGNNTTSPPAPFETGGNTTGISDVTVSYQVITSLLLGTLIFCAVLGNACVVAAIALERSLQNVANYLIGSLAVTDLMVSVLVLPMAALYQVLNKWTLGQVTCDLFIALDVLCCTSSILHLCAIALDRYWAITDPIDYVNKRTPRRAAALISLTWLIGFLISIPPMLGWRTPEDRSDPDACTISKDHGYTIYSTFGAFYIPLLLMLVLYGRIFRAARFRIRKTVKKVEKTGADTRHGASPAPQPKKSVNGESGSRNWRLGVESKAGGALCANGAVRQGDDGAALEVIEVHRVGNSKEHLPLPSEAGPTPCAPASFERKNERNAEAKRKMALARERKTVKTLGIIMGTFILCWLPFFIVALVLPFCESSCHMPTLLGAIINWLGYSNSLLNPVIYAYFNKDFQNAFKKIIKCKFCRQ
reported_endpoint: AC50

{"columns": ["molecule", "reported_endpoint", "result"],
 "data": [
  ["CCNC(=O)/C=C(C)/C=C/C=C(C)/C=C/c1c(C)cc(OC)c(C)c1C [MOTRETINIDE]", "AC50", "> 30 µM"],
  ["Cc1cc(C2CCCCC2)n(O)c(=O)c1 [CICLOPIROX]", "AC50", "> 30 µM"],
  ["CC(=O)OCC(=O)[C@@]1(O)CC[C@H]2[C@@H]3CCC4=CC(=O)CC[C@]4(C)[C@H]3[C@@H](O)C[C@@]21C [HYDROCORTISONE ACETATE]", "AC50", "> 30 µM"],
  ["N[C@@H](Cc1ccccc1)C(=O)O [PHENYLALANINE]", "AC50", "> 30 µM"],
  ["O=C(/C=C/c1cccc(S(=O)(=O)Nc2ccccc2)c1)NO [BELINOSTAT]", "AC50", "> 30 µM"],
  ["CCCc1nc2c(C)cc(-c3nc4ccccc4n3C)cc2n1Cc1ccc(-c2ccccc2C(=O)O)cc1", "AC50", "> 30 µM"],
  ["C[N+](C)(C)CCOC(=O)CCC(=O)OCC[N+](C)(C)C [SUXAMETHONIUM]", "AC50", "> 30 µM"],
  ["c1ccc2c(SC3=NCCN3)c[nH]c2c1 [TINAZOLINE]", "AC50", "0.19 µM"]
]}

Proceed to the following item.
Q) Give the value of AC50 reported for the following: CCCCC1C(=O)N(c2ccccc2)N(c2ccc(O)cc2)C1=O (centres undefined) [OXYPHENBUTAZONE ANHYDROUS]
A) > 30 µM

---

What follows is a record of AC50 for Delta-type opioid receptor (Homo sapiens, UniProt P41143).

Hi, could you look up AC50 for each item in my list?
1. CNC[C@H](O)c1ccc(O)c(O)c1 [EPINEPHRINE]
2. CC(=O)O[C@]1(C(C)=O)CC[C@H]2[C@@H]3C=C(Cl)C4=CC(=O)[C@@H]5C[C@@H]5[C@]4(C)[C@H]3CC[C@@]21C [CYPROTERONE ACETATE]
3. Clc1ccc(Cn2c(CN3CCCC3)nc3ccccc32)cc1
4. OC[C@H]1O[C@@H](n2cnc3c2NC=NC[C@H]3O)C[C@@H]1O
5. O=C(NCCO[N+](=O)[O-])c1cccnc1

A)
1: > 30 µM; 2: > 30 µM; 3: > 30 µM; 4: > 30 µM; 5: > 30 µM

Hi, could you look up AC50 for each item in my list?
1. CCCN1CCCC[C@H]1C(=O)Nc1c(C)cccc1C
2. CC(Cc1cccc(C(F)(F)F)c1)NCCOC(=O)c1ccccc1 (centres undefined)
3. O=C1Nc2ccc(Cl)cc2C(c2ccccc2Cl)=NC1O (centres undefined)
4. CCCN(CCC)S(=O)(=O)c1ccc(C(=O)O)cc1

A)
1: > 30 µM; 2: > 30 µM; 3: > 30 µM; 4: > 30 µM

---

I'd appreciate it if you could supply AC50 values for the items below.
target: B2 bradykinin receptor (Homo sapiens); note: assay procedure not described here
Sequence (P30411 whole entry): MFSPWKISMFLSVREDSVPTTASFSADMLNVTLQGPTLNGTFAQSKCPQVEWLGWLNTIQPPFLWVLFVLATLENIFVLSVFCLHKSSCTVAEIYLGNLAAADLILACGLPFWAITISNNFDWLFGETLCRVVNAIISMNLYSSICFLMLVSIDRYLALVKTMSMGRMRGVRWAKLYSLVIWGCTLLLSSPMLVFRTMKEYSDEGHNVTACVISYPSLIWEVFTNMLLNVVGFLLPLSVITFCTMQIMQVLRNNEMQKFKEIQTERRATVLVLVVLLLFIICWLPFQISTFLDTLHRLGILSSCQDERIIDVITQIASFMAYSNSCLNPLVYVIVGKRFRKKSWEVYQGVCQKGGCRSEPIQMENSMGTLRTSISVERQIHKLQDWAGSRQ
Where a SMILES comes first, the peptide text is derived from it. [ ]: non-standard residue; d: D form. pGlu = O=C1CC[C@@H](C(=O)O)N1; Thz = O=C(O)[C@@H]1CSCN1

Known results for molecules:
{"columns": ["molecule", "AC50"],
 "data": [
  ["O=C1CC[C@@H](C(=O)N2CSC[C@H]2C(=O)O)N1 [PIDOTIMOD] ([pGlu]-[Thz]-OH)", "> 30 µM"],
  ["O=C1Nc2ccc(Cl)cc2C(c2ccccc2Cl)=NC1O (stereo not drawn) [LORAZEPAM]", "> 30 µM"],
  ["COc1cc(N)c(Cl)cc1C(=O)NC1CCN(CCCOc2ccc(F)cc2)CC1OC (stereo not drawn) [CISAPRIDE]", "> 30 µM"],
  ["CC(CN(C)C)C(C)(O)Cc1ccc(Cl)cc1 (stereo not drawn) [CLOBUTINOL]", "> 30 µM"],
  ["O=C(O)Cc1ccccc1Nc1c(Cl)cccc1Cl [DICLOFENAC]", "> 30 µM"]
]}

Hi, could you look up AC50 for each item in my list?
1. CC(C)(O/N=C(\C(=O)N[C@@H]1C(=O)N2C(C(=O)[O-])=C(C[n+]3ccccc3)CS[C@H]12)c1csc(N)n1)C(=O)O [CEFTAZIDIME]
2. Cc1ccccc1-n1c(CF)nc2ccc(N)cc2c1=O [AFLOQUALONE]
3. O=C(CCCN1CCC(O)(c2ccc(Br)cc2)CC1)c1ccc(F)cc1 [BROMPERIDOL]
4. CCOC(=O)c1ccc(N)cc1 [BENZOCAINE]
5. NS(=O)(=O)c1cc2c(cc1Cl)N=C(CSCc1ccccc1)NS2(=O)=O [BENZTHIAZIDE]
6. CC(C)(Oc1ccc(CCNC(=O)c2ccc(Cl)cc2)cc1)C(=O)O [BEZAFIBRATE]
7. Oc1cc(O)c(Cl)cn1
8. CC(Cc1cccc(C(F)(F)F)c1)NCCOC(=O)c1ccccc1 (stereo not drawn) [BENFLUOREX]

A)
1: > 30 µM; 2: > 30 µM; 3: > 30 µM; 4: > 10 µM; 5: > 10 µM; 6: > 10 µM; 7: > 30 µM; 8: > 30 µM

---

What follows is a record of AC50 for D(3) dopamine receptor (Homo sapiens).

Known results for compounds:
{"columns": ["compound", "AC50"],
 "data": [
  ["O=C(O)Cc1ccccc1Oc1ccc(Cl)cc1Cl", "> 30 µM"],
  ["Nc1c(CC(=O)O)cccc1C(=O)c1ccc(Br)cc1", "> 30 µM"],
  ["C[N+](C)(CCCCCC[N+](C)(C)C1c2ccccc2-c2ccccc21)C1c2ccccc2-c2ccccc21", "0.0671 µM"],
  ["N=C(N)N/N=C/c1c(Cl)cccc1Cl", "10.5 µM"],
  ["CC(=O)NO [ACETOHYDROXAMIC ACID]", "> 30 µM"]
]}

Hi, could you look up AC50 for each item in my list?
1. C=CC(=O)Nc1cccc(Oc2nc(Nc3ccc(N4CCN(C)CC4)cc3)nc3ccsc23)c1
2. COC(=O)C[C@](O)(CCCC(C)(C)O)C(=O)O[C@@H]1C(OC)=C[C@]23CCCN2CCc2cc4c(cc2[C@H]13)OCO4 [OMACETAXINE MEPESUCCINATE]
3. O=C(NNCS(=O)(=O)O)c1ccncc1 [METHANIAZIDE]
4. Cc1ccc(C)c(OCCCC(C)(C)C(=O)O)c1

A)
1: 0.453 µM; 2: > 30 µM; 3: > 30 µM; 4: > 30 µM

---

target: Vascular endothelial growth factor receptor 2 (Homo sapiens, UniProt P35968); type: functional; note: assay procedure not described here
Sequence (P35968 whole entry): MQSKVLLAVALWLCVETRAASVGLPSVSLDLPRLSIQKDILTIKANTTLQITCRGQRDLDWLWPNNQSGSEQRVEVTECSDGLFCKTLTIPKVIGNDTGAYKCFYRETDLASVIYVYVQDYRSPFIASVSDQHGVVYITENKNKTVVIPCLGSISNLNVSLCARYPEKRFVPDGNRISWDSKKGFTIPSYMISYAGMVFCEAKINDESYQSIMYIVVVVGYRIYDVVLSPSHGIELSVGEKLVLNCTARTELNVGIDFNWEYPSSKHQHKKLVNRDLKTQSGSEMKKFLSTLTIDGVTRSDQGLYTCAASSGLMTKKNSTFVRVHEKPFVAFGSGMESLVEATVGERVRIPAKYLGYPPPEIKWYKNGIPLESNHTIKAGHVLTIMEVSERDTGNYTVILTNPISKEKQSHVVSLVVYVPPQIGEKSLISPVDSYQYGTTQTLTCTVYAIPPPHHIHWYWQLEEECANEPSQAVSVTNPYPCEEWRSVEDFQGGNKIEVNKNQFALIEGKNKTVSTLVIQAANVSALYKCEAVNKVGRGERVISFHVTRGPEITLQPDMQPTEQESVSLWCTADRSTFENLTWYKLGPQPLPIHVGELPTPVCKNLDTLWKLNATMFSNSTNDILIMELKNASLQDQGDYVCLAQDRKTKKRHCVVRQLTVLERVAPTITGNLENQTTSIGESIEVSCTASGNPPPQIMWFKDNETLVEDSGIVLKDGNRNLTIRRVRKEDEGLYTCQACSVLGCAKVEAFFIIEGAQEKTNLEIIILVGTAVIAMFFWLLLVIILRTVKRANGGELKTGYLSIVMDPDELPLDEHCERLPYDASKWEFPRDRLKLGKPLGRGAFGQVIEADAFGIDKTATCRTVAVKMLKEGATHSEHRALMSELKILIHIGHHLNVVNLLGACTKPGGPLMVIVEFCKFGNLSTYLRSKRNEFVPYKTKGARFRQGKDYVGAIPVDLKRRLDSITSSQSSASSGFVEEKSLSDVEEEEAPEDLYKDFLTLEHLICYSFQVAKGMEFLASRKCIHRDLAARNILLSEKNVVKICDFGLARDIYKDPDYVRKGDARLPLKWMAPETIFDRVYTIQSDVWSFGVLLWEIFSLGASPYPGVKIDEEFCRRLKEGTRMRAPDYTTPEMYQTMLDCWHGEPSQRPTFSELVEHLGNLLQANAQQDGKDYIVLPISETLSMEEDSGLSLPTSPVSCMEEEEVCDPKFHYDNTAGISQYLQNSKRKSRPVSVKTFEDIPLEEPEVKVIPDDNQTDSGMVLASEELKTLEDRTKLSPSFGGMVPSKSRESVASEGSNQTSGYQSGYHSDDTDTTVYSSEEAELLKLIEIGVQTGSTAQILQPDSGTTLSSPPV
I'd appreciate it if you could supply AC50 values for the items below.

Known results for compounds:
{"columns": ["compound", "AC50"],
 "data": [
  ["CCOc1cc([C@@H](CS(C)(=O)=O)N2C(=O)c3cccc(NC(C)=O)c3C2=O)ccc1OC", "> 30 µM"],
  ["Cc1onc(-c2c(F)cccc2Cl)c1C(=O)N[C@@H]1C(=O)N2[C@@H]1SC(C)(C)[C@@H]2C(=O)O [FLOXACILLIN]", "> 30 µM"],
  ["Cc1nnc(SCC2=C(C(=O)O)N3C(=O)[C@@H](NC(=O)Cn4cnnn4)[C@H]3SC2)s1 [CEFAZOLIN]", "> 300 µM"],
  ["CC(C)c1cccc(C(C)C)c1O [PROPOFOL]", "> 30 µM"],
  ["CC(C)(O/N=C(\\C(=O)N[C@@H]1C(=O)N2C(C(=O)[O-])=C(C[n+]3ccccc3)CS[C@H]12)c1csc(N)n1)C(=O)O [CEFTAZIDIME]", "> 300 µM"]
]}

Hi, could you look up AC50 for each item in my list?
1. Clc1ccc(Cn2c(CN3CCCC3)nc3ccccc32)cc1 [CLEMIZOLE]
2. S=P(N1CC1)(N1CC1)N1CC1 [THIOTEPA]

A)
["> 30 µM", "> 30 µM"]
